- ASSAY_SYSTEM: Follistatin-related protein 3 (Homo sapiens) (UniProt O95633)
- Sequence (O95633 whole entry, looked up): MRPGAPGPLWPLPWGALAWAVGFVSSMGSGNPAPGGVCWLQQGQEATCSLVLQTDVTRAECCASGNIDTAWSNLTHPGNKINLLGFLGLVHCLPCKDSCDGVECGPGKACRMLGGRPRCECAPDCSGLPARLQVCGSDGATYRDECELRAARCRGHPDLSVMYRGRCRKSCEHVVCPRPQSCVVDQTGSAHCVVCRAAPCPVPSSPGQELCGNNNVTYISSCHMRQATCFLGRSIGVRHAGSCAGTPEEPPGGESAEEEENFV
- TEST: FSTL3 binders on small-molecule microarrays, primary screen, biochemical, small-molecule microarray, 635 nm fluorescence (AID 1105);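 also: score merges emission near 667 nm and signal to noise per printed spot across three slides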
- SETUP_CONDITIONS: FSTL3 binding, higher = more signal
Record form. Attribute: composite z-score. Fill in for each entry.

Ask: Supply recorded composite z-score for `C=CCC1=C[C@H]2[C@H]([C@@H]3C=C[C@]2(CC=C)C(=O)[C@]32CO2)[C@@]2(CO2)C1=O` here.
Reply: 1.31

Ask: Check the records and state composite z-score for C=CCC(OC(C)=O)[C@@H]1[C@@H](N(Cc2ccc(-c3cccc(C(F)(F)F)c3)o2)C(=O)Cc2ccc(F)cc2)c2cc(OCCCO)ccc2N1C(=O)c1ccc(-c2ccccc2)cc1 (some centres not stated)
Reply: -0.198

Ask: Return value of composite z-score for input `C=C(CCCC)/C(=C/C[C@@H](OC(=O)c1ccncc1)c1cccc(OCCO)c1)c1cc(C(=O)OC)ccc1OC` , no commentary.
Reply: 0.933

Ask: Write down composite z-score measured for item `C=CC[C@@]12N=C(c3ccc(OCCCO)cc3)O[C@@H]1c1ccccc1CN(Cc1ccccc1)C2=O`
Reply: 0.0791

Ask: Specify measured composite z-score for `C=C(COC)/C(=C/C[C@H](OC(C)=O)c1ccc(OCCO)cc1)c1cnc2ccccc2c1` .
Reply: 1.46

Ask: Report composite z-score, nothing else, for this compound: `Cc1ccc(S(=O)(=O)N[C@H]2COC(=O)CC=C[C@H](C)COC(=O)N[C@@H](C)C(=O)CC=C[C@@H]2C)cc1`
Reply: 1.4

Ask: Supply reported composite z-score belonging to this compound: `C[N+](C)(C)CCCC[C@@H]1NC(=O)[C@H]2C[C@@H](C(=O)NCc3ccc(F)cc3)[C@@H](c3cccc(OCCO)c3)N2C1=O`
Reply: 0.954

* * *

- ASSAY_SYSTEM: Fibroblast growth factor 2 (Homo sapiens) (UniProt P09038)
- Sequence (P09038 whole entry, looked up): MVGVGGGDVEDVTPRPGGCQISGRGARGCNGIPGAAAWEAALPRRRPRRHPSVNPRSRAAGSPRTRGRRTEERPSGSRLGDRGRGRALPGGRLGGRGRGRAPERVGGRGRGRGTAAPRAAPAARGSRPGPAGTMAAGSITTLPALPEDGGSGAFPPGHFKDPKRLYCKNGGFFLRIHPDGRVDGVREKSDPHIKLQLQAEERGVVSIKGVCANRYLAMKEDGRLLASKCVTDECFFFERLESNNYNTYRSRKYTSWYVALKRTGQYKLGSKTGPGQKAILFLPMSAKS
- TEST: FGF2 binders on small-molecule microarrays, primary screen, biochemical, small-molecule microarray, 635/667 nm fluorescence (AID 1133)
- SETUP_CONDITIONS: small-molecule microarray binding, FGF2, fluorescence 635/667; higher = more signal
EXPERIMENTAL_ENDPOINT: composite z-score
Give your answer as a number; write no unit.

Ask: Recall the reported composite z-score of `CCOC(=O)C[C@H]1[C@H](OC(=O)Cc2ccc3c(c2)OCO3)[C@@H](NC(=O)CC(C)C)c2cc(OCCCO)ccc2N1C(=O)c1ccccc1` on Fibroblast growth factor 2 (Homo sapiens) (UniProt P09038) and write it down.
Reply: 0.503

Ask: Report composite z-score on Fibroblast growth factor 2 (Homo sapiens) (UniProt P09038) for this entry: `COc1ccc(-c2ccccc2[C@@H]2N[C@H](C(=O)O)CC[C@H]2C)cc1`
Reply: 0.364

Ask: Look up and report composite z-score, with Fibroblast growth factor 2 (Homo sapiens) (UniProt P09038) as system, for `COCCCNC(=O)[C@@H]1c2ccccc2C(=O)N(CC23CC4CC(CC(C4)C2)C3)[C@H]1c1ccc(CO)cc1`
Reply: 0.875

Ask: Answer briefly: composite z-score recorded on Fibroblast growth factor 2 (Homo sapiens) (UniProt P09038) for `C=C(CCCC)/C(=C/C[C@H](OC(=O)c1ccncc1)c1cccc(OCCO)c1)c1cc(C(=O)OC)ccc1OC`
Reply: 1.59
